Kindly state inhibition of Spp entry into Vero-E6 cells (luciferase, 48 h.p.i.) for each of the entries shown.
# TARGET SYSTEM: S protein of SARS-CoV-2 on pseudotyped retroviral particles (Spp) (SARS-CoV-2, UniProt P0DTC2 14-1273)
# ASSAY SUMMARY: cell-based or functional assay

BINDER: hcAb 2.20 (Fc fusion, also called 2.20Fc; 2.20 hcAb) heavy: QVQLVESGGGSVQAGGSLRLSCAASGYTYNNYYMGWFRQAPGKEREGVAAINSDGLDTYVADSVKGRFTISRDNAKDTVHLQMNSLKPEDTAIYSCATGRTVYYSGYDFRLSVDDYWGQGTQVTVSS
RESULT: ≥ 90%

BINDER: hcAb 2.15 (Fc fusion) heavy: QVQLVESGGGSVQAGGSLKLSCAASGYASWARKCIGWFRQAPGQEREGVAAIFDFDGSTYYSDSVKGRFTISGDNAKNTVSLQMNSLLPKDTAVYYCTVAFGTCDNWYRGRGDYWGQGTQVTVSS
RESULT: > 90%

BINDER: hcAb 1.29 (Fc fusion) heavy: QVQLVESGGGSVQAGGSLRLSCAASGYTINTDAVAWFRQAPGKGDERVAVIYTGSGNTNYADSVKGRFTISQDNAKNTVYLQMNSLKPEDTALYYCASGYYGASGYDFNNWGQGTQVTVSS
RESULT: ≥ 90%

BINDER: hcAb 2.1 (Fc fusion, also called 2.1Fc) heavy: QVQLVESGGGSVQAGGSLRLSCAAFGATISSAHMGWFRQAPGKEREGVAFRYTDGSSTYYTTSVRGRFTISQDNAKNTVYLQMNSLKPEDTAMYYCASNPSWGRLVGGQYNNWGQGTQITVSS
RESULT: > 90%

Need inhibition of Spp entry into Vero-E6 cells (luciferase, 48 h.p.i.) for each of these binders.
1. hcAb 1.10 (Fc fusion) heavy: QVQLVESGGGSVQAGGSLRLSCAASGYTYSTCRKGWYRQAPGKERELVASITADGATYYLDSVKGRLTISQDNAKNTVYLQMNSLKPEDTAVYYCAASVKDFTCTFNSWGQGTQVTVSS
2. hcAb 1.26 (Fc fusion) heavy: QVQLVESGGGLVQAGGSLRLSCAATGYTWSSVCMGWFRQAPGKEREGVAGIPSGRNRPYYADSVKGRFTISQDNAKNAVFLLMNSLKPEDTAIYYCAPCSAPHDPEYNYWGQGTQVTVSS

1. > 90%
2. ≥ 90%
